ASSAYED TARGET: gastrin receptor (Rattus norvegicus, UniProt P30553)
Construct: The stomach was excised and flushed with ca. 1 ml of unbuffered physiological saline solution; from tissue; host or cells: isolated whole stomach of immature rats (ca. 21 days old)
Sequence (P30553 1-452): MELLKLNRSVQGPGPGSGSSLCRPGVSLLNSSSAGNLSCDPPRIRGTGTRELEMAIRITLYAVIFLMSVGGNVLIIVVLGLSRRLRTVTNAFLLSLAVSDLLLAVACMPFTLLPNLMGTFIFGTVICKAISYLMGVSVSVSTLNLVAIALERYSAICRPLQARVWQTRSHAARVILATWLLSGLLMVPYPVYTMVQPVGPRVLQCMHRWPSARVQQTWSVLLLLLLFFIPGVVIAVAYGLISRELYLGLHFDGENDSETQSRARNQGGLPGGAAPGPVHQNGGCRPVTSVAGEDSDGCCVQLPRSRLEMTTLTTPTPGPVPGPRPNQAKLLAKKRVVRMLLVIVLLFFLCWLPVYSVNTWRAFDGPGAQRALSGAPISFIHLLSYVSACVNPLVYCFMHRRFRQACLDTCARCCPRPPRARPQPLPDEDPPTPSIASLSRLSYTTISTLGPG
PROTOCOL SUMMARY: gastrin antagonist activity in immature rat stomach assay (pentagastrin dose-response, acid secretion)
EXPERIMENTAL PARAMETERS: isolated immature rat stomach, cumulative pentagastrin dose-response curves, read-out: Gastrin pKb (converted)
Method: The compounds of the examples were also tested for gastrin antagonist activity in an immature rat stomach assay. The procedure was as follows: […] After 120 min of stabilisation the drugs were added directly to the serosal solution in the organ bath and after a further 60 min cumulative pentagastrin dose-response curves were started. Changes in acid secretion were monitored and the curves analysed according to Black et al., Br. J. Pharmacol., 1985, 86, 581.
Known Kb of a selection of molecules
# unit: nM | format: bare number

# annotated cases, reported Kb shown
O=C(O)c1cccc(NC(=O)c2[nH]c(-c3ccccc3)nc2CCC23CC4CC(CC(C4)C2)C3)c1	234
O=C(O)c1cccc(NC(=O)c2nc(C3CC=CCC3)[nH]c2CCC23CC4CC(CC(C4)C2)C3)c1 (stereo not drawn)	6.61
Cc1ccc(NC(=O)c2nc(C3CCCO3)[nH]c2CCC23CC4CC(CC(C4)C2)C3)cc1C(=O)O (stereo not drawn)	7.76
O=C(O)c1cccc(NC(=O)c2nc(-c3ccccn3)[nH]c2CCC23CC4CC(CC(C4)C2)C3)c1	166
O=C(O)c1cc(NC(=O)c2nc(C3CCCCC3)[nH]c2CCC23CC4CC(CC(C4)C2)C3)ccc1F	11.7
O=C(O)c1cccc(NC(=O)c2nc(-c3ccccc3F)[nH]c2CCC23CC4CC(CC(C4)C2)C3)c1	26.3

Pending molecule:
Kb for `CC(C)(C)c1nc(C(=O)Nc2cccc(C(=O)O)c2)c(CCC23CC4CC(CC(C4)C2)C3)[nH]1` ?
11

====

ASSAYED TARGET: CCKB receptor (Mus musculus, UniProt P56481)
Construct: The whole brains from male mice (CD1 22-25 g; Charles River) were removed; from tissue; host or cells: cerebral cortex membranes of male CD1 mice
Sequence (P56481 1-453): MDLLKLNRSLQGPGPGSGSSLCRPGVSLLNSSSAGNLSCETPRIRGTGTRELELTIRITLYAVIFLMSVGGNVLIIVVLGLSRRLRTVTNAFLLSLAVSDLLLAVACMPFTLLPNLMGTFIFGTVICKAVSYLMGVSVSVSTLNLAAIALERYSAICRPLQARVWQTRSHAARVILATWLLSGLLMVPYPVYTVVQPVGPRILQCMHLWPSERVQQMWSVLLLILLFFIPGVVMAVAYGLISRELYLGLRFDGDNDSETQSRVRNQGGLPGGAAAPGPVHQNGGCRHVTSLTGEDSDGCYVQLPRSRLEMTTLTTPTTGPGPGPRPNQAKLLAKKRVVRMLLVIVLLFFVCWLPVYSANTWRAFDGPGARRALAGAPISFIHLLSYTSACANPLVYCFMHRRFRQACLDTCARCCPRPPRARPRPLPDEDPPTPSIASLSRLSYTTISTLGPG
PROTOCOL SUMMARY: CCKB receptor radioligand binding assay in mouse cortical membranes
EXPERIMENTAL PARAMETERS: [125I]-CCK8(S) 200 pM, 150 min at 21±3°, read-out: CCKB pKi (converted)
Procedure: The compounds of the examples were tested for binding at the CCKB receptor in mouse cortical membranes by means of a radioligand binding assay. The procedure was as follows: […] The assay was terminated by rapid filtration through pre-soaked Whatman GF/B filters using a Brandell Cell Harvester. The filters were washed (3×3 ml) with ice-cold 50 mM Tris-HCl (pH 7.4 @ 4° C.) and bound radioactivity determined by counting (1 min) in a gamma-counter.
Kindly apply the following: yes if Ki is less than 400 nM, no in every other case.

Take a look at these entries with their results.
Cc1ccccc1-c1nc(C(=O)Nc2cc(C(=O)O)ccc2F)c(CCC23CC4CC(CC(C4)C2)C3)[nH]1	no
Cc1ccccc1-c1nc(CCc2cccc(C(=O)O)c2)c(C(=O)NC23CC4CC(CC(C4)C2)C3)[nH]1	no
O=C(O)c1cccc(NC(=O)c2nc(C3CCCCC3)[nH]c2CCC2CCCCC2)c1	yes
O=C(O)c1cc(NC(=O)c2nc(CCc3ccccc3)[nH]c2CC2CCCCCC2)cc(C(=O)O)c1	no
Cc1ccc(C(=O)O)cc1NC(=O)c1nc(-c2ccccc2C)[nH]c1CCC12CC3CC(CC(C3)C1)C2	no

Threshold test, Ki < 400 nM: `CCCc1nc(C(=O)Nc2cccc(C(=O)O)c2)c(CCC23CC4CC(CC(C4)C2)C3)[nH]1`
yes

Threshold test, Ki < 400 nM: `CC(C)(C)c1nc(C(=O)Nc2cccc(C(=O)O)c2)c(CCC23CC4CC(CC(C4)C2)C3)[nH]1`
yes

Threshold test, Ki < 400 nM: `CC(C)(C)Cc1nc(C(=O)Nc2cccc(C(=O)O)c2)c(CCC23CC4CC(CC(C4)C2)C3)[nH]1`
yes

Threshold test, Ki < 400 nM: `O=C(O)c1cccc(NC(=O)c2nc(-c3ccc(O)cc3)[nH]c2CCC23CC4CC(CC(C4)C2)C3)c1`
no
